Recorded Liver microsome T1-2 (min) Human for the following compounds
- assayRemarks: in vitro liver microsome metabolic stability, human
- Type: in vitro ADME
- studyConditions: Human liver microsomes, 37°C
Answer with a number only, understood to be in min.

Field: example entries. Status: answers known.
{"columns": ["compound", "quantitativeResult"],
 "data": [
  ["Cc1cccnc1[C@@H](Nc1c(Nc2ccnc(C(=O)N(C)C)c2O)c(=O)c1=O)[C@@]1(C)CCC(F)(F)C1 [125C]", 343.09],
  ["Cc1cccnc1C(Nc1c(Nc2ccc(Cl)c(C(=O)N(C)C)c2O)c(=O)c1=O)C1(C)CC(F)(F)CO1 (stereo not shown) [compound 080]", 539.06],
  ["Cc1cccnc1[C@H](Nc1c(Nc2ccnc(C(=O)N(C)C)c2O)c(=O)c1=O)[C@@]1(C)CC(F)(F)CO1 (single isomer, unassigned) [128A]", 310.89]
]}

Attention now turns to another entry.
Prompt: Could you tell me which Liver microsome T1-2 (min) Human is on file for Cc1cccnc1[C@H](Nc1c(Nc2ccc(F)c(C(=O)N(C)C)c2O)c(=O)c1=O)C1(C)CC(F)(F)C1 [compound 089] ?
Completion: 331.10

###

- assayRemarks: in vitro liver microsome metabolic stability, beagle dog
- Type: in vitro ADME
- studyConditions: Beagle dog liver microsomes, 37°C
Classify on Liver microsome T1-2 (min) Beagle dog using bin 1: < 200 min; bin 2: ≥ 200 min and < 700 min; bin 3: ≥ 700 min

Consider the following illustrative entries.
{"columns": ["compound", "discreteLabel"],
 "data": [
  ["CN(C)C(=O)c1nccc(Nc2c(N[C@@H](C#CC3CC3)C3(C)CCCC3)c(=O)c2=O)c1O", "bin 3"],
  ["Cc1nccnc1[C@H](Nc1c(Nc2ccnc(C(=O)N(C)C)c2O)c(=O)c1=O)C1(C)CCCC1", "bin 2"],
  ["CN(C)C(=O)c1nccc(Nc2c(N[C@@H](C#CC3CCC3)[C@]3(C)CC(F)(F)CO3)c(=O)c2=O)c1O (single isomer, unassigned) [110A]", "bin 2"],
  ["CN(C)C(=O)c1nccc(Nc2c(N[C@@H](c3cccc(CF)n3)C3(C)CCCC3)c(=O)c2=O)c1O", "bin 1"],
  ["Cc1cccnc1[C@H](Nc1c(Nc2ccnc(C(=O)N(C)C)c2O)c(=O)c1=O)[C@@]1(C)CC(F)(F)CO1 (single isomer, unassigned) [128A]", "bin 1"],
  ["CN(C)C(=O)c1nccc(Nc2c(NC(c3ncccn3)C3(C)CCCC3)c(=O)c2=O)c1O (racemic)", "bin 3"],
  ["Cc1cccnc1[C@@H](Nc1c(Nc2ccnc(C(=O)N(C)C)c2O)c(=O)c1=O)[C@@]1(C)CCC(F)(F)C1 [125C]", "bin 2"],
  ["Cc1cccnc1[C@H](Nc1c(Nc2ccc(Cl)c(C(=O)N(C)C)c2O)c(=O)c1=O)C1(C)CC(F)CO1 (stereo partly drawn)", "bin 2"]
]}

Kindly consider the entry below.
Prompt: Which bin should I file Cc1cccnc1C(Nc1c(Nc2ccc(Cl)c(C(=O)N(C)C)c2O)c(=O)c1=O)C1(C)CCOC1 (stereo not drawn) under?
Completion: bin 3

###

- targetOrTestSystem: human CCR6 (Homo sapiens, UniProt P51684)
- assayRemarks: human CCR6 calcium flux activity (FLIPR, HEK293 cells stably expressing human CCR6, CCL20 stimulation)
- studyConditions: HEK293 cells stably expressing human CCR6, EC80 human MIP-3 alpha/CCL20; read-out: CCR6 inhibitory activity, IC50
pIC50: −log10 of the molar value.
Entry flag: true if pIC50 reaches 8; false if it does not.

For orientation, consider the following solved cases.
{"columns": ["compound", "targetOrTestSystem", "discreteLabel"],
 "data": [
  ["Cc1c(Cl)ccnc1[C@H](Nc1c(Nc2ccnc(C(=O)N(C)C)c2O)c(=O)c1=O)C1(C)CCCC1 [compound 048]", "human CCR6 (Homo sapiens, UniProt P51684)", "false"],
  ["Cc1cccnc1[C@H](Nc1c(Nc2ccc(C)c(C(=O)N(C)C)c2O)c(=O)c1=O)C1(C)CCCC1 [compound 103]", "human CCR6 (Homo sapiens, UniProt P51684)", "false"],
  ["CN(C)C(=O)c1nccc(Nc2c(N[C@@H](C#Cc3ccccn3)C3(C)CCCC3)c(=O)c2=O)c1O [compound 118]", "human CCR6 (Homo sapiens, UniProt P51684)", "false"]
]}

Prompt: Evaluate CN(C)C(=O)c1nccc(Nc2c(NC(C(=O)C3CC3)C3(C)CCCC3)c(=O)c2=O)c1O (stereo not shown) [compound 034] : pIC50 at minimum 8?
Completion: false

Prompt: What do you get for CN(C)C(=O)c1nccc(Nc2c(N[C@@H](c3nc(C(F)F)ccc3F)C3(C)CCCC3)c(=O)c2=O)c1O [compound 109] ?
Completion: true

Prompt: Could you do the same for CN(C)C(=O)c1nccc(Nc2c(N[C@@H](c3ccccc3)C3(C)CCCC3)c(=O)c2=O)c1O [compound 037] , please?
Completion: false

Prompt: Try this compound next: Cc1c(C(Nc2c(Nc3ccnc(C(=O)N(C)C)c3O)c(=O)c2=O)C2(C)CCCC2)nn2c1CCC2 (stereo not shown) [compound 029]
Completion: false

Prompt: Next compound up: Cc1cc(F)cnc1[C@H](Nc1c(Nc2ccnc(C(=O)N(C)C(C)C)c2O)c(=O)c1=O)C1(C)CCCC1 [compound 066]
Completion: false

Prompt: Ok, now Cc1ccc(F)nc1C(Nc1c(Nc2ccnc(C(=O)N(C)C)c2O)c(=O)c1=O)C1(C)CC2CC2C1 (stereo not shown) [compound 121]
Completion: false

Prompt: And for Cc1cc(F)cnc1[C@H](Nc1c(Nc2ccnc(C(=O)N(C)C)c2O)c(=O)c1=O)C1(C)CCCC1 [compound 065] ?
Completion: true

###

- targetOrTestSystem: human CCR6 (Homo sapiens, UniProt P51684)
- Construct: expressed in transfected cells; host or cells: HEK293
- Sequence (P51684 1-374): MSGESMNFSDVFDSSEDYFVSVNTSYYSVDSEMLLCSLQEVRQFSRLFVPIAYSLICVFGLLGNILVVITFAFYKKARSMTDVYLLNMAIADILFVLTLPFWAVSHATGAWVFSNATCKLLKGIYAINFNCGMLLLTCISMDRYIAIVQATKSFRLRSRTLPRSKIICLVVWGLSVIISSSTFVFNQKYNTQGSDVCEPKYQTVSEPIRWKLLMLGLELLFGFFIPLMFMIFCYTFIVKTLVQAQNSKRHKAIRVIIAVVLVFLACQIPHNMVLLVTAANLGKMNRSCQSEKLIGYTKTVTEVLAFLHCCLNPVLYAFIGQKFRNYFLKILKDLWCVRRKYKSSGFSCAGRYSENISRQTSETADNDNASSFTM
- assayRemarks: human CCR6 calcium flux activity (FLIPR, HEK293 cells stably expressing human CCR6, CCL20 stimulation)
- Format: cell-based
- studyConditions: HEK293 cells stably expressing human CCR6, EC80 human MIP-3 alpha/CCL20; read-out: CCR6 inhibitory activity, IC50
measurementName: pIC50
Please keep in mind that pIC50 is minus log10 of the molar concentration; only the number is needed.

{"columns": ["compound", "pIC50"],
 "data": [
  ["CN(C)C(=O)c1nccc(Nc2c(N[C@@H](c3ccccn3)C3(C)CCCC3)c(=O)c2=O)c1O", 7.91],
  ["Cc1cccnc1[C@H](Nc1c(Nc2ccnc(C(=O)N3CCOCC3)c2O)c(=O)c1=O)C1(C)CCCC1", 7.87],
  ["Cc1cccnc1[C@H](Nc1c(Nc2ccnc(C(=O)N(C)C)c2O)c(=O)c1=O)C1(C)CCCC1", 7.96],
  ["CN(C)C(=O)c1nccc(Nc2c(NC(c3ncccn3)C3(C)CCCC3)c(=O)c2=O)c1O (racemic)", 8.00]
]}

Prompt: If you can, please state the reported pIC50 value of CNC(=O)c1c(Cl)ccc(Nc2c(N[C@@H](c3ncccc3C)C3(C)CCCC3)c(=O)c2=O)c1O .
Completion: 8.19

Prompt: // same read-out, input: Cc1ccc(C)c([C@H](Nc2c(Nc3ccnc(C(=O)N(C)C)c3O)c(=O)c2=O)C2(C)CCCC2)n1
Completion: 7.90
